assay: in vivo; details: mouse, ip
Would you kindly list TD50 at 0.5 h for each of these molecules?
Numbers only, in mg/kg.

Please review the entries below; each comes with its answer.
CN(CC#Cc1cccc(C(F)(F)F)c1)Cc1ccccc1 : 334
CC(C#Cc1cccc(C(F)(F)F)c1)N(C)C (centres unmarked) : 153
CCNCC#Cc1ccccc1 : 88
C(#Cc1ccccc1)CN1CCCCC1 : 132
C#CC(C)(C)N : 391
CC(N)C#Cc1cccc(Cl)c1 (centres unmarked) : 50

# input for lookup
Please fill in: TD50 at 0.5 h reported for CC(C#Cc1cccc(C(F)(F)F)c1)NCc1ccccc1 (centres unmarked) = 123

* * *

experiment: Rotarod neurotoxicity test in mice; conditions: mouse, in vivo, ip
Give measured TD50 at 0.5 h for each item. Keep answers brief.

CCNC(C)C#Cc1ccccc1 (centres unmarked) : ≥ 120 mg/kg

# ---- query molecule ----
Per the record, CNC(C)C#Cc1ccccc1 (centres unmarked) has TD50 at 0.5 h of ≥ 95 mg/kg

* * *

test: in vivo; conditions: mouse, ip
readoutKind: TD50 at 0.5 h (mg/kg)
Answers are plain numbers, in mg/kg.

FC(F)(F)c1cccc(C#CCNCCc2ccccc2)c1 : 126

State recorded TD50 at 0.5 h for all listed compounds.
1. CC(C#Cc1ccccc1)NCc1ccccc1 (stereo not drawn)
2. FC(F)(F)c1cccc(C#CCNc2ccco2)c1

1. 170
2. 193

Entry under test: C#CC(C)N (stereo not drawn) . Its TD50 at 0.5 h was 720

* * *

assay: Plasma concentration in combative mice as a function of time; type: in vivo; conditions: mouse, plasma, ip; 120 min, 10 mg/kg i.p., N = 6; read-out: plasma concentration ± S.E.
readoutKind: concentration at 2 h

The reported concentration at 2 h of the compound C#CC(C)N (stereo not shown) [Compound 3, 2-Amino-3-butyne] was < 5 µM

* * *

test: Plasma concentration in combative mice as a function of time; type: in vivo; conditions: mouse, plasma, ip; 30 min, 10 mg/kg i.p., N = 6; read-out: plasma concentration ± S.E.
readoutKind: concentration at 0.5 h (µM)
Numbers only, in µM.

In plain terms, C#CC(C)N (stereo not shown) has a documented concentration at 0.5 h of 2000

* * *

experiment: Plasma concentration in combative mice as a function of time; assay type: in vivo; details: mouse, plasma, ip; 60 min, 10 mg/kg i.p., N = 5; read-out: plasma concentration ± S.E.
readoutKind: concentration at 1 h (µM)
Numbers only, in µM.

# concentration at 1 h of C#CC(C)N (stereo not shown) [Compound 3, 2-Amino-3-butyne] = 900

* * *

test: Plasma concentration in combative mice as a function of time; format: in vivo; conditions: mouse, plasma, ip; 90 min, 10 mg/kg i.p., N = 6; read-out: plasma concentration ± S.E.
readoutKind: concentration at 1.5 h

For this compound ( C#CC(C)N (stereo not shown) [Compound 3, 2-Amino-3-butyne] ), measured concentration at 1.5 h is < 5 µM

* * *

I'd be grateful if you could share measured LD50 for these entries.
test: Acute toxicity test; settings: mouse, in vivo, ip; probit analysis

CC(N)C#Cc1ccc(C(=O)N(C)C)cc1 (centres unmarked) [Compound 21] : < 100 mg/kg
NCC#Cc1ccccc1 [Compound 26] : ≥ 100 mg/kg
CC(N)C#Cc1ccc(Cl)cc1 (centres unmarked) [Compound 1, 2-Amino-4-(p-chlorophenyl)-3-butyne] : 130 mg/kg
CC(C)NC(C)C#Cc1ccccc1 (centres unmarked) [Compound 13] : 120 mg/kg

Please give LD50 for each item listed below.
1. CCNC(C)C#Cc1ccccc1 (centres unmarked) [Compound 32]
2. CNC(C)C#Cc1ccccc1 (centres unmarked) [Compound 31]
3. C#CC(C)NC (centres unmarked) [Compound 34]
4. CC(C#Cc1ccccc1)Nc1ccco1 (centres unmarked) [Compound 18]
5. CC(N)C#Cc1ccc(C#N)cc1 (centres unmarked) [Compound 2, 2-Amino-4-(p-cyanophenyl)-3-butyne]

120 mg/kg
95 mg/kg
828 mg/kg
~300 mg/kg
> 100 mg/kg

For every item in the list below, what is its measured LD50?
1. CC(N)C#Cc1ccc(C(N)=O)cc1 (centres unmarked) [Compound 22]
2. COc1ccc(C#CC(C)N)cc1 (centres unmarked) [Compound 23]

["> 100 mg/kg", "> 100 mg/kg"]
